The measured values listed here are drawn from PubChem BioAssay (NCI).

# TEST_PROTOCOL: NCI Yeast Anticancer Drug Screen. Data for the mec2-1 strain (AID 157)
# TEST_PARAMETERS: S. cerevisiae mec2-1 strain, at 50.0 µM, hits give high values
About 79,000 compounds went through this panel and 15% of them were active in at least one assay; those are over-represented in the sample as a whole.
Listing of recorded growth inhibition by entry.
Express your answer in %, writing the number without its unit.

The cases that follow already have their growth inhibition on record.
>>> recorded_number("Cc1ncc([N+](=O)[O-])n1CCCl")
12.2
>>> recorded_number("CCOC1(C)OC2OC(COC(C)=O)C(OC(C)=O)C(OC(N)=O)C2O1 (stereo not drawn)")
0.05
>>> recorded_number("C/C=C/C1OCCC(C)O1 (stereo not drawn)")
-12
>>> recorded_number("CC(=O)C(C(=O)NCc1ccccc1)C(c1ccc2c(c1)OCO2)C(C(C)=O)C(=O)NCc1ccccc1 (stereo not drawn)")
1.25
>>> recorded_number("C/C(=N\\NC(N)=O)C(C)(C)O")
16.9
>>> recorded_number("Nc1ccc(S(=O)(=O)N/N=C/c2ccccc2)cc1")
-0.4
>>> recorded_number("Cc1cn(C2CC(N=[N+]=[N-])C(CO)O2)c(=O)[nH]c1=O (stereo not drawn)")
-0.4
>>> recorded_number("CCOc1ccc(N2CCN(C(=O)Nc3ccccc3OC)CC2)cc1")
-6.2
>>> recorded_number("OC(C/C(=N\\Nc1ccccc1)c1ccc(F)cc1)(C(F)(F)F)C(F)(F)F")
98.8
>>> recorded_number("CC(=O)NC1C(OC(C)C(=O)NC(C(=O)NC(CCC(=O)NCCCNC2c3ccccc3Nc3cccc([N+](=O)[O-])c32)C(N)=O)C(C)C)C(O)C(CO)OC1(C)OCc1ccccc1 (stereo not drawn)")
-20.4

Give the measured growth inhibition of "Cc1cc(C)nc(N)c1" .
-11.8

Then what about the compound CC(=O)N1C(=O)C2(Nc3cccnc3N2)c2ccccc21 (stereo not drawn) ?
16.4

Then what about the compound "Cc1nc2ccccc2c(=O)n1NC(=O)c1ccccn1" ?
-10

Then what about the compound CC(Nc1ccc([N+](=O)[O-])cc1)S(=O)(=O)O (stereo not drawn) ?
-0.2

Then what about the compound "CC(=O)/C=C/N(C)c1ccc(O)cc1" ?
2.3

Then what about the compound "CCOC(=O)Cn1/c(=N/N=C(\C)c2ccc([N+](=O)[O-])o2)sc2cc(Cl)ccc21" ?
9.05

Then what about the compound "COc1ccc(C2=CCCCc3cc(O)c(OC)cc32)cc1" ?
96.7

Then what about the compound "Cc1ccc2oc(=O)c(C(=O)Nc3nc(C45CC6CC(CC(C6)C4)C5)cs3)cc2c1" ?
-22.9

Then what about the compound "CCOC(=O)c1nc2c(n(O)c1=N)CCC/C2=N\O" ?
-1.6

Then what about the compound "Cc1cccc(NC(=O)OCCOC(=O)Nc2cccc(C)n2)n1" ?
-11.6

Then what about the compound "COc1cc(CNc2nc3c(NC(C)=O)cc(C(F)(F)F)cc3nc2-c2ccccc2)cc(OC)c1OC" ?
-15.8

Then what about the compound "CSC(=Nc1ccc([N+](=O)[O-])cc1C#N)NC(=O)c1ccccc1" ?
-19.9

Then what about the compound "COc1cccc(-c2ccccc2)c1" ?
10.9

====

# TEST_PROTOCOL: NCI Yeast Anticancer Drug Screen. Data for the mec2-1 strain (AID 157)
# TEST_PARAMETERS: S. cerevisiae mec2-1 strain, at 50.0 µM, hits give high values
The panel holds about 79,000 compounds, 15% with a hit somewhere; the sample as a whole holds those more often.
PROPERTY_LABEL: growth inhibition (%)
Express your answer in %, writing the number without its unit.

>>> recorded_number("O=C(NNc1nc(N2CCOCC2)nc(N2CCOCC2)n1)c1ccccc1")
5.15
>>> recorded_number("N#Cc1c2c(n3c1[nH]c(=O)c1ccccc13)CCCC2")
10
>>> recorded_number("O=C(O)c1ccc(S(=O)(=O)c2cccc(Cl)c2)cc1")
7.8
>>> recorded_number("Cc1cc(N=Nc2ccc(O)c3ncccc23)c2ccccc2n1")
6.85
>>> recorded_number("CSCCC(Nc1ncnc2nc[nH]c12)C(=O)O (configuration not stated)")
3.05

Give the measured growth inhibition of "Cc1nc(N)c(N2CCN(CN)CC2)c(=O)[nH]1" .
7.1

Then what about the compound "CCN(C(=N)C#N)c1ccccc1" ?
13.2

Then what about the compound "CCOC(=O)/C(C#N)=C/c1c(-c2ccccc2)nn2ccccc12" ?
26.6

Then what about the compound "O=C1C(O)=CC(=C(c2ccccc2)c2ccccc2)c2cc(Br)ccc21" ?
26.2

Then what about the compound NC(CS(N)(=O)=O)C(=O)O (configuration not stated) ?
-3.75

Then what about the compound "CC(C)(C)NC(NC(C)(C)C)=C(/C=C(/Cl)[N+](=O)[O-])[N+](=O)[O-]" ?
-21.1

Then what about the compound "N/N=C1/C(=N/O)CCc2nonc21" ?
6.5

====

# TEST_PROTOCOL: NCI Yeast Anticancer Drug Screen. Data for the rad50 strain (AID 155);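 further: 0% = growth of vehicle-only cultures of the same strain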
# TEST_PARAMETERS: S. cerevisiae rad50 strain growth inhibition; at 50.0 µM; hits give high values
# Experimental: Growth inhibition of yeast strains with defined genetic alterations is measured as a screen for potential anti-cancer activity. Selected strains with alterations in DNA damage repair or cell cycle control were exposed to compounds and growth inhibition was measured relative to vehicle treated controls. The strain used in this assay is rad50
This is part of a sample that, as a whole, favours compounds with a hit. Of some 79,000 tested, about 15% had one in any assay. The source made the active and inactive calls. Cut-off read from the data, not from the text of the source: active = growth inhibition above about 70%; inactive = the rest.
Listing of recorded growth inhibition by entry.

The cases that follow already have their growth inhibition on record.
>>> result("CC1(C)COC(c2ccc3ccccc3c2)OC1")
"26% (inactive)"
>>> result("O=S(=O)(c1cccc(C(F)(F)F)c1)N(CCCCCN(S(=O)(=O)c1cccc(C(F)(F)F)c1)S(=O)(=O)c1cccc(C(F)(F)F)c1)S(=O)(=O)c1cccc(C(F)(F)F)c1")
"-12.2% (inactive)"
>>> result("CN1CC(c2ccccc2)=Cc2c1ccc(N)c2N=N")
"-13.3% (inactive)"
>>> result("CN1N=Nc2ccccc2C1(O)c1ccccc1 (centres undefined)")
"8.7% (inactive)"
>>> result("CCC(C)C1CCCCC1 (centres undefined)")
"-13% (inactive)"
>>> result("CSc1nc(-c2ccc([N+](=O)[O-])cc2)oc1/N=C/c1ccc([N+](=O)[O-])cc1")
"-8.45% (inactive)"

Give the measured growth inhibition of CCCCNC(=O)CC(C)C(=O)O (centres undefined) .
2.8% (inactive)

Then what about the molecule CCCC(SCCO)C(CC)CSCCO (centres undefined) ?
-16.8% (inactive)

Then what about the molecule O=C1OC2CC3CC2C1C3C(=O)N1CCCCC1 (centres undefined) ?
11.5% (inactive)

Then what about the molecule "O=C1CCCC/C1=C/c1ccccc1" ?
6% (inactive)

Then what about the molecule "Cc1ccc(S(=O)(=O)OC(c2ccc(C(OS(=O)(=O)c3ccc(C)cc3)(C(F)(F)F)C(F)(F)F)cc2)(C(F)(F)F)C(F)(F)F)cc1" ?
4.45% (inactive)

====

# TEST_PROTOCOL: NCI Yeast Anticancer Drug Screen. Data for the mec2-1 strain (AID 157)
# TEST_PARAMETERS: S. cerevisiae mec2-1 strain, at 50.0 µM, hits give high values
The panel holds about 79,000 compounds, 15% with a hit somewhere; the sample as a whole holds those more often.
Listing of recorded growth inhibition by entry.
Express your answer in %, writing the number without its unit.

The cases that follow already have their growth inhibition on record.
>>> recorded_number("COc1ccc2c(N=[N+]=[N-])cc(C)nc2c1")
-1.45
>>> recorded_number("O=C1NC(c2ccccc2)C1N(Cc1ccccc1)Cc1ccccc1 (configuration not stated)")
0.55
>>> recorded_number("CCCCCCN(CCCCCC)CC(O)c1c(Cl)ccc2ccccc12 (configuration not stated)")
96.5
>>> recorded_number("CCOC(=O)c1ccc(N)cc1")
20.1

Give the measured growth inhibition of "Cc1cccc(NC(=O)/C=C/C(=O)O)c1" .
-41

Then what about the compound "Cc1nc(Nc2ccccc2C)c2ccsc2n1" ?
49.5

Then what about the compound COC(=O)C1OCOC2C(CO)OCOC12 (configuration not stated) ?
23.1

====

# TEST_PROTOCOL: NCI Yeast Anticancer Drug Screen. Data for the mlh1 rad18 strain (AID 175)
# TEST_PARAMETERS: S. cerevisiae mlh1 rad18 strain growth inhibition; at 50.0 µM; hits give high values
This is part of a sample that, as a whole, favours compounds with a hit. Of some 79,000 tested, about 15% had one in any assay.
Listing of recorded growth inhibition by entry.
Express your answer in %, writing the number without its unit.

The cases that follow already have their growth inhibition on record.
>>> recorded_number("Cc1ccc(C)c(OC(=O)NC2CCCCC2)c1")
-19.9
>>> recorded_number("NNS(=O)(=O)c1ccc(/C=C2\\NC(=O)NC2=O)cc1")
23.9
>>> recorded_number("Nc1ccc(NC(=O)Nc2ccc(N)cc2)cc1")
20.4
>>> recorded_number("CC(=O)CC(C)=NCCCCN=C(C)CC(C)=O")
-17.3
>>> recorded_number("CC(C)C(NC(=O)c1cnc2ccccc2n1)C(=O)O (configuration not stated)")
7.75

Give the measured growth inhibition of "Nc1cccc(Nc2nc3ccccc3nc2NS(=O)(=O)c2ccccc2)c1" .
-9.1

Then what about the compound CC12CCC(=O)C=C1CCC1C2CCC2(C)C1CCC2(O)C(=O)Cn1c(=O)[nH]cc(F)c1=O (configuration not stated) ?
11.4

Then what about the compound O=C(O)c1ccc(C(=O)C2CC(C(=O)O)CCC2S(=O)(=O)O)cc1 (configuration not stated) ?
17.1

Then what about the compound "COC(=O)c1ccc(Cn2ccc(=O)n(Cc3ccc(C(=O)OC)cc3)c2=O)cc1" ?
43.1

Then what about the compound COC1OC(=O)c2cccc3cccc1c23 (configuration not stated) ?
-18.7

Then what about the compound "Cc1cc(S(=O)(=O)Nc2nnc3c(Cl)cc(C(F)(F)F)cn23)c(S)cc1Cl" ?
-20

Then what about the compound C/C=C/C1OCCC(C)O1 (configuration not stated) ?
11
